- Tested on: Bacillus subtilis
- measurement.description: Antibacterial activity against Bacillus subtilis assessed as zones of growth inhibition incubated for 24 hrs by […]
- Type: functional, organism-based
Calls of active or inactive are those of the source. No cut-off for these calls is given here.
quantity: growth inhibition (GI)

The cases that follow already have their growth inhibition (GI) on record.
smiles_input=CC(C)/C=C/C(=O)NC1=CC(=O)[C@]2(C)CC[C@H](C)N12 quantity="growth inhibition (GI)" observed_result=inactive
smiles_input=C[C@H]1CC[C@@]2(C)C(=O)C=C(NC(=O)c3ccccc3)N12 quantity="growth inhibition (GI)" observed_result=inactive
smiles_input=CC(C)=CC(=O)NC1=CC(=O)[C@@]2(O)CC[C@H](C)N12 quantity="growth inhibition (GI)" observed_result=inactive
smiles_input=CC(C)=CC(=O)NC1=CC(=O)[C@]2(C)C=C[C@H](C)N12 quantity="growth inhibition (GI)" observed_result=inactive
smiles_input=CC(C)=CC(=O)NC1=CC(=O)[C@]2(C)[C@H](O)[C@@H](O)[C@H](C)N12 quantity="growth inhibition (GI)" observed_result=inactive

Q. State its growth inhibition (GI): CC(C)=Cc1nc(N2C(=O)CC[C@@H]2C)cc(=O)o1
A. inactive

Q. State its growth inhibition (GI): CC(C)=Cc1nc(N2C(=O)C[C@H](O)[C@@H]2C)cc(=O)o1
A. inactive

Q. State its growth inhibition (GI): C/C=C(\C)C(=O)NC1=CC(=O)[C@]2(C)CC[C@H](C)N12
A. inactive
